B1: PPP2R2B (parent)
chain: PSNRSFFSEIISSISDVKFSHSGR

- Variants of: B1
- experiment-notes: protein stability index of a GFP-peptide fusion (GPS, HEK-293T) (PSI 1-6); higher = more stable;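 also: lentivirally expressed fusions sorted by FACS into six bins by GFP to DsRed ratio, PSI derived from sequencing read proportions per bin multiplied by bin number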
- test-context: c terminus: a fixed tail appended
measured-quantity: protein stability index

Please review the entries below; each comes with its answer.
INSERT INTO results (sequence_entry, measured_quantity, test_value) VALUES
  ('PSNRSFFSEDISSISDVKFSHSGR [I10D]', 'protein stability index', 3.13),
  ('PSNRSEFSEIISSISDVKFSHSGR [F6E]', 'protein stability index', 3.22),
  ('PSNRSFFSEIISSISDVKKSHSGR [F19K]', 'protein stability index', 3.02);

Next variant, protein stability index to be filled in.
QUERY: Entry under review: PSNYSFFSEIISSISDVKFSHSGR [R4Y] . Reported protein stability index?
RESULT: 1.86
